- Test system: HOP-92
- EXPERIMENT_NOTES: NCI tumour cell line growth inhibition, 48 h
Calls of active or inactive are those of the source. No stated cut-off is given here; in the data, active = GI50 up to about 1.1 µM and inactive = higher.
Property: GI50; scope: individual compounds

COMPOUND | GI50
CCOC(=O)C1S/C(=N\c2cccc(Cl)c2C)N=C1C (stereo not drawn) | 15.1 µM (inactive)
O=C(NNC(=S)Nc1ccccc1)C12CC3CC(CC(C3)C1)C2 | 30.1 µM (inactive)
CC(=O)OCc1c(C)c2ccccc2n1C(C)=O | 98.6 µM (inactive)
CC(C)C1OC(/C=C/c2ccccc2)OCC1(C)C (stereo not drawn) | 17.9 µM (inactive)
COc1ccc(C)cc1-c1ccc(-c2cc(C)ccc2OC)o1 | 54.6 µM (inactive)
COc1ccc(N(C)CN(C)c2nc(N(C)C)nc(N(C)C)n2)cc1 | > 100 µM (inactive)
O=c1nc(NC(c2ccccc2)(c2ccccc2)c2ccccc2)ccn1CCCl | 14.2 µM (inactive)
Cc1cc(C(=O)NCCN(C)C)c2nc3ccccc3cc2c1 | 1.45 µM (inactive)
COc1cc2c(c(OC)c1OC)C(=O)c1c(O)cc(C)c(OC)c1C2=O | > 100 µM (inactive)
O=C(c1ccccc1)c1ccc(N2C(=O)/C(=C/c3cccc(Oc4ccccc4)c3)N=C2c2ccccc2)c(N2C(=O)/C(=C/c3cccc(Oc4ccccc4)c3)N=C2c2ccccc2)c1 | 88.5 µM (inactive)
O=c1c2cc([N+](=O)[O-])ccc2[nH]n1Cc1ccccc1Cl | 27.8 µM (inactive)
Cc1c(S(=O)(=O)O)ccc(/N=N/c2c(O)c(C(=O)O)cc3ccccc23)c1Cl | > 100 µM (inactive)
CCCCN(CCCC)C(=O)C(=O)CC(=O)c1ccc(Br)cc1 | > 100 µM (inactive)
COc1cc(C(=O)OC2CC(C)=CC[C@@]3(C)CC[C@](O)(C(C)C)C23)ccc1O (stereo partly drawn) | 16.3 µM (inactive)
Nc1c(-c2ccc(Cl)c(Cl)c2)c2ccc([N+](=O)[O-])cc2c(=O)n1-c1nc2ccccc2s1 | 0.296 µM (active)
NC(=O)C(N)=O | > 100 µM (inactive)
N#Cc1cc2c(cc1C#N)SCCSCCCSCCS2 | 2.49 µM (inactive)
COc1cc(C2c3cc4c(cc3OC(NN)C2C)OCO4)cc(OC)c1OC (stereo not drawn) | 2.04 µM (inactive)
CC12CCc3ccccc3C1=Nc1ccccc12 (stereo not drawn) | 12.9 µM (inactive)
COc1c(C)c(O)c2c(c1C)OC(c1ccccc1)CC2=O (stereo not drawn) | 29.6 µM (inactive)
C[C@]12CCC[C@H](O)[C@H]1C[C@H](CO)CC2 | > 100 µM (inactive)
COC(=O)c1ccccc1C1CN=NC12Cc1c(ccc(C)c1C)C2=O (stereo not drawn) | 21.3 µM (inactive)
CC1(C)SCc2nc3ncccc3n21 | > 100 µM (inactive)

The origin of these recorded values is ChEMBL document CHEMBL1201862.
